Experiment: Metabolic stability in human hepatic microsome
Type: in vitro ADME
Conditions: microsomes, pH 7.4; human hepatic microsome, NADPH(+); read-out: CL NADPH(+)
Positions of bridges follow the written chain, without caps; N, C: chain ends. Non-standard residues stand in square brackets, D forms with d. Residues, ends and D or L forms follow the SMILES beside them. *: point of attachment. NMeF = CN[C@@H](Cc1ccccc1)C(=O)O; NMeL = CN[C@@H](CC(C)C)C(=O)O; NMeA = CN[C@@H](C)C(=O)O; Piperidide = C1CCN(*)CC1; dNMeA = CN[C@H](C)C(=O)O; β3hA = C[C@H](N)CC(=O)O
# microsomal CLint at 1 uM annotations
Please state the number and follow it with the unit.

According to the records, this compound CC(C)C[C@H]1C(=O)N(C)[C@@H](Cc2ccccc2)C(=O)N(C)[C@@H](CC(C)C)C(=O)N[C@@H](C)CC(=O)N[C@H](C(C)C)C(=O)N[C@@H](C)C(=O)N[C@@H]([C@@H](C)O)C(=O)N(C)[C@@H](C)C(=O)N[C@@H](Cc2ccccc2)C(=O)N1C [DP-788] (cyclo(AT[NMeA]F[NMeL][NMeF][NMeL][β3hA][dV])) displays microsomal CLint at 1 uM of 158 µL/min/mg

According to the records, this compound CC(C)[C@@H]1NC(=O)[C@H](C)N(C)C(=O)[C@@H](C)N(C)C(=O)C[C@@H](C(=O)N(C)[C@@H](Cc2ccccc2)C(=O)N(C)[C@@H](Cc2ccccc2)C(=O)N[C@@H](C)C(=O)N2CCCCC2)NC(=O)[C@H](C)N(C)C(=O)[C@H](C)N(C)C(=O)[C@H]([C@@H](C)O)NC(=O)[C@H](C)N(C)C(=O)[C@H](Cc2ccccc2)N(C)C(=O)[C@H](C)N(C)C1=O [DP-509] ([dNMeA][NMeA]V[NMeA][NMeF][NMeA]T[NMeA][NMeA]D[NMeF][NMeF]A-Piperidide; lactam N-10) displays microsomal CLint at 1 uM of 30 µL/min/mg

###

Assay: PAMPA (parallel artificial membrane permeability assay)
Format: in vitro ADME
Details: PAMPA; membrane permeation rate (Pe); 50 mM MOPSO buffer pH 6.5 with 5.0% glycocholic acid, 37° C., 18 hours; read-out: iPAMPA Pe
Starred links: 1 amine or outer side, 2 acyl side, 3 side chain; linkers in the order of their positions; H or OH if unused. Positions of bridges follow the written chain, without caps; N, C: chain ends. Non-standard residues stand in square brackets, D forms with d. Residues, ends and D or L forms follow the SMILES beside them. *: point of attachment. NMeF = CN[C@@H](Cc1ccccc1)C(=O)O; NMeβAla = CN(CCC(=O)[*:2])[*:1]; NMeL = CN[C@@H](CC(C)C)C(=O)O; Piperidide = C1CCN(*)CC1; dNMeA = CN[C@H](C)C(=O)O; Sar = CNCC(=O)O; tBu = CC(C)(C)*
measure_name: Papp at 18 hours, 50 µM (×10⁻⁶ cm/s)
Quick reminder: number only, in ×10⁻⁶ cm/s, skip the unit.

According to the records, this compound CC(C)C[C@@H]1NC(=O)[C@H](CC(C)C)N(C)C(=O)[C@H](Cc2ccccc2)N(C)C(=O)CNC(=O)[C@H]([C@@H](C)O)NC(=O)[C@H](CC(C)C)N(C)C(=O)[C@H](Cc2ccccc2)NC(=O)[C@@H](C)N(C)C(=O)C[C@@H](C(=O)N2CCCCC2)NC(=O)[C@H](COC(C)(C)C)NC1=O [DP-120] ([dNMeA]F[NMeL]TG[NMeF][NMeL]LS(tBu)D-Piperidide; lactam N-10) displays Papp at 18 hours, 50 µM of 50

According to the records, this compound CC[C@H](C)[C@@H]1NC(=O)[C@H](CC(C)C)NC(=O)CCN(C)C(=O)C[C@@H](C(=O)N2CCCCC2)NC(=O)[C@H](CC(C)C)NC(=O)[C@H](Cc2ccccc2)NC(=O)[C@H]([C@@H](C)O)NC(=O)[C@H](CC(C)C)NC(=O)[C@H](C(C)C)NC(=O)[C@H](CC(C)C)NC(=O)CN(C)C1=O [DP-411] ([NMeβAla]LI[Sar]LVLTFLD-Piperidide; lactam N-11) displays Papp at 18 hours, 50 µM of 8.4
